system: Wolbachia pipientis; test: Anti-Wolbachia Cell-Based Screen; format: functional; set-up: scale not given: in the data most compounds retested in dose-response had high values; conditions: 5 µM
Out of some 48,000 compounds screened, about 13,000 (27%) showed an effect of 50% or more. The list shows a part of the results.
recorded_endpoint: Percent Effect (%)

1) COCC(=O)NCc1cc(=O)n2c(n1)CN(Cc1ccccc1)CCC2.O=C(O)C(F)(F)F: 93.29
2) CNc1cc(C)nc(N2Cc3cnn(Cc4ccc(F)cc4)c3C2)n1: 67.48
3) Cc1ccc(CNCc2cccc3cn[nH]c23)c(OC2CCOC2)c1 (stereo not drawn): 1.328
4) COCC(=O)NCc1cc(=O)n2c(n1)CN(CC1CC1)CCC2.O=C(O)C(F)(F)F: 83.83
5) Cc1cc(C2CCCN(CCCS(C)(=O)=O)C2)n[nH]1 (stereo not drawn): 81.87
6) O[C@H]1CC[C@@H](Cc2cc(-c3ccc(F)cc3)on2)O[C@@H]1CNCC1CC1: 6.759
7) Fc1cccc(-c2nc(CN3CCOC(Cn4cccn4)C3)co2)c1 (stereo not drawn): 1.83
8) Cc1cc(C)n(CC2CCCN2CCCS(N)(=O)=O)n1 (stereo not drawn): -6.761
9) Cc1cncc(C2CCCN(C(=O)c3c[nH]c(=O)[nH]c3=O)C2)n1 (stereo not drawn): -6.344
10) CC(C1CC1)N(CC(=O)NCC(F)(F)F)C1CC1 (stereo not drawn): -3.588
11) O=C(NCc1cc(=O)n2c(n1)CN(CC1CCOC1)CCC2)C1CC1.O=C(O)C(F)(F)F (stereo not drawn): -7.493
12) Cc1ccnc(N2Cc3cnn(Cc4ccc(F)cc4)c3C2)n1: -9.844
13) c1ccc(-c2nc(CN3CCOC(Cn4cccn4)C3)no2)cc1 (stereo not drawn): -5.165
